- study-system: Aurora kinase B (Homo sapiens)
- Sequence (Q96GD4 whole entry): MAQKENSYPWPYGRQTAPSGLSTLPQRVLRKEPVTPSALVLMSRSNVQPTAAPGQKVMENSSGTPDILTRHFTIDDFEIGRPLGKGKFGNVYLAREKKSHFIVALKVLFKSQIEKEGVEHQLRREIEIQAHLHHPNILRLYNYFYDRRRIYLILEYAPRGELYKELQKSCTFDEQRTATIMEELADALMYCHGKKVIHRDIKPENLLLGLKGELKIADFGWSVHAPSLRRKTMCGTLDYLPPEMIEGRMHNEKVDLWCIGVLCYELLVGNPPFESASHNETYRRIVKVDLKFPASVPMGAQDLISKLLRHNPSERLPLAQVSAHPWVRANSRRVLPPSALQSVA
- assay-notes: Inhibition of recombinant aurora B
pIC50: −log10 of the molar value.
Listed here are compounds together with their documented pIC50.

[
  {
    "structure-notation": "CN(C)CCCc1c(/C=C2\\C(=O)Nc3ccc(NS(=O)(=O)c4ccccc4)cc32)[nH]c2c1C(=O)CCC2",
    "pIC50": 6.63
  },
  {
    "structure-notation": "CNC(=O)CCc1c(/C=C2\\C(=O)Nc3ccc(NS(=O)(=O)c4ccccc4)cc32)[nH]c2c1C(=O)CCC2",
    "pIC50": 6.49
  },
  {
    "structure-notation": "O=C1Nc2ccc(NS(=O)(=O)c3ccccc3)cc2/C1=C/c1[nH]c2c(c1CCC(=O)N1CCCC1)C(=O)CCC2",
    "pIC50": 6.14
  },
  {
    "structure-notation": "O=C1Nc2ccc(NS(=O)(=O)c3ccccc3)cc2/C1=C/c1[nH]c2c(c1CCC(=O)N1CCOCC1)C(=O)CCC2",
    "pIC50": 6.04
  },
  {
    "structure-notation": "O=C1Nc2ccc(S(=O)(=O)N3CCc4ccccc43)cc2/C1=C/c1[nH]c2c(c1CCC(=O)N1CCOCC1)C(=O)CCC2",
    "pIC50": 5.50
  },
  {
    "structure-notation": "O=C1Nc2ccc(NS(=O)(=O)c3ccccc3)cc2/C1=C/c1[nH]c2c(c1CCCN1CCCC1)C(=O)CCC2",
    "pIC50": 6.51
  },
  {
    "structure-notation": "CCN(CC)CCCc1c(/C=C2\\C(=O)Nc3ccc(S(=O)(=O)N4CCc5ccccc54)cc32)[nH]c2c1C(=O)CCC2",
    "pIC50": 6.21
  },
  {
    "structure-notation": "CCN(CC)CCCc1c(/C=C2\\C(=O)Nc3ccc(NS(=O)(=O)c4ccccc4)cc32)[nH]c2c1C(=O)CCC2",
    "pIC50": 6.45
  },
  {
    "structure-notation": "CN(C)CCCc1c(/C=C2\\C(=O)Nc3ccc(S(=O)(=O)N4CCc5ccccc54)cc32)[nH]c2c1C(=O)CCC2",
    "pIC50": 6.51
  }
]

###

- study-system: Aurora kinase A (Homo sapiens, UniProt O14965)
- Sequence (O14965 whole entry): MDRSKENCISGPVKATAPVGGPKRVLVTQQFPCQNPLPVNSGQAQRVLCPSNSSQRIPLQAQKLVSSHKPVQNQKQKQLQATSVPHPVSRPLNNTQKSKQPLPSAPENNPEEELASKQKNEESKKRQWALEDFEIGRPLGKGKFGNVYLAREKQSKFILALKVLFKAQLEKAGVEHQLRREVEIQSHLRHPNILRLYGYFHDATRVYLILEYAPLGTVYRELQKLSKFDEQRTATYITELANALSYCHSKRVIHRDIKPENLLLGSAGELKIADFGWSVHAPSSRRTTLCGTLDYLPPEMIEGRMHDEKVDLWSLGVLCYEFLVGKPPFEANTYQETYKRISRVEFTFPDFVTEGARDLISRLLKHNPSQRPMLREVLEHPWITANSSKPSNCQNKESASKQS
- assay-notes: Inhibition of recombinant aurora A
pIC50: −log10 of the molar value.
Listing of recorded pIC50 by entry.

[
  {
    "structure-notation": "O=C1Nc2ccc(S(=O)(=O)N3CCc4ccccc43)cc2/C1=C/c1[nH]c2c(c1CCC(=O)N1CCOCC1)C(=O)CCC2",
    "study-system": "Aurora kinase A (Homo sapiens, UniProt O14965)",
    "pIC50": 6.25
  },
  {
    "structure-notation": "C=CCS(=O)(=O)c1ccc2c(c1)/C(=C/c1[nH]c3c(c1CCC(=O)O)C(=O)CCC3)C(=O)N2",
    "study-system": "Aurora kinase A (Homo sapiens, UniProt O14965)",
    "pIC50": 7.41
  },
  {
    "structure-notation": "CN(C)S(=O)(=O)c1ccc2c(c1)/C(=C/c1[nH]c3c(c1CCC(=O)O)C(=O)CCC3)C(=O)N2",
    "study-system": "Aurora kinase A (Homo sapiens, UniProt O14965)",
    "pIC50": 7.68
  }
]
